Recorded values, source ChEMBL document CHEMBL6103615.

- protocol-description: Hydrophobicity of compound
- Type: physicochemical
Parameter: Activity. Scope: all listed entries.
I only need the number, thanks.

Report Activity, nothing else, for this substance: `H-RLTTMVHWKKIWKPGIKKWIK-OH`
0.51

Name the recorded Activity of the item `H-CFASAPRWKKIWKPGIKKWIK-OH` in your answer.
0.502

Answer with the recorded Activity of `H-WKKIWKPGIKKWIK-OH` only.
0.495
